// data source = ChEMBL document CHEMBL4229548

Quick reference for Activity among some compounds
- System: Rattus norvegicus
- testDetails: In-vivo inhibition of MAO in rat assessed as norepinephrine level in brain at 20 mg/kg/day, po administered for 1 week measured post last dose by HPLC method (reference value: 1.438 +/- 0.054 ng/mg)
- Type: functional

{"itemSmiles": "O=C(NCO)c1ccc(Cl)cn1", "unitAbbrev": "ng/mg", "Activity": 4.12}
{"itemSmiles": "O=C(NCCO)c1ccc(Cl)cn1", "unitAbbrev": "ng/mg", "Activity": 4.99}
{"itemSmiles": "O=C(NCCO)c1ccc(Cl)cc1", "unitAbbrev": "ng/mg", "Activity": 3.73}
{"itemSmiles": "NCCNC(=O)c1ccc(Cl)cc1", "unitAbbrev": "ng/mg", "Activity": 3.13}
{"itemSmiles": "O=C(NCO)c1ccc(Cl)cc1", "unitAbbrev": "ng/mg", "Activity": 2.64}
